System: H1N1 A/PR/8/1934
Conditions: A/PR/8/1934, 48 h, 1 μM
Bridge positions count the residues as written; N and C are the ends. Square brackets hold non-standard residues; d marks the D form. Peptide text beside a SMILES is read from it.

Molecule	Target Or System	% Inhibition
CC[C@@H](C)[C@H]1NC(=O)[C@@H](Cc2ccccc2)NC(=O)[C@@H]([C@H](C)O)NC(=O)[C@@H](Cc2ccccc2)NC(=O)[C@@H](Cc2c[nH]c3ccccc23)NC(=O)[C@@H](CC(=O)O)NC(=O)[C@H](NC(=O)[C@H](CCCCN)NC(=O)[C@H](CCCCN)NC(=O)[C@H](CCCNC(=N)N)NC(=O)[C@@H](N)CCCNC(=N)N)CSSC[C@H](C(=O)O)NC(=O)[C@@H](CC(N)=O)NC1=O [PSP V A3, H-RRKKcdwftfinc-OH] (H-RRKK[dC][dD][dW][dF][dT][dF][dI][dN][dC]-OH; disulfide 5-13)	H1N1 A/PR/8/1934	<20%
CC[C@@H](C)[C@H]1NC(=O)[C@@H](Cc2ccccc2)NC(=O)[C@@H]([C@H](C)O)NC(=O)[C@@H](Cc2ccccc2)NC(=O)[C@@H](Cc2c[nH]c3ccccc23)NC(=O)[C@@H](Cc2ccc(O)cc2)NC(=O)[C@H](NC(=O)[C@H](CCCCN)NC(=O)[C@H](CCCCN)NC(=O)[C@H](CCCNC(=N)N)NC(=O)[C@@H](N)CCCNC(=N)N)CSSC[C@H](C(=O)O)NC(=O)[C@@H](CC(N)=O)NC1=O [PSP V A20, H-RRKKcywftfinc-OH] (H-RRKK[dC][dY][dW][dF][dT][dF][dI][dN][dC]-OH; disulfide 5-13)	H1N1 A/PR/8/1934	<20%

* * *

As shown below, each of these compounds has a reported % inhibition H3N8 value.
Test system: H3N8 A/Miami/2/63
Settings: A/Miami/2/63, 48 h, 500 μM
Bridge positions count the residues as written; N and C are the ends. Square brackets hold non-standard residues; d marks the D form. Peptide text beside a SMILES is read from it.
Reported Metric: % inhibition H3N8 (%)

Compound	Reported Metric	Output Unit	Measured
CC[C@@H](C)[C@H]1NC(=O)[C@@H](Cc2ccccc2)NC(=O)[C@@H](CCCNC(=N)N)NC(=O)[C@@H](CO)NC(=O)[C@@H]([C@H](C)CC)NC(=O)[C@@H]([C@H](C)O)NC(=O)[C@H](NC(=O)[C@@H](CCCCN)NC(=O)[C@@H](CCCCN)NC(=O)[C@@H](CCCNC(=N)N)NC(=O)[C@H](N)CCCNC(=N)N)CSSC[C@H](C(=O)O)NC(=O)[C@@H](CC(N)=O)NC1=O [PSP II A8, H-rrkkctisrfinc-OH] (H-[dR][dR][dK][dK][dC][dT][dI][dS][dR][dF][dI][dN][dC]-OH; disulfide 5-13)	% inhibition H3N8	%	77.8
C[C@H](O)[C@H]1NC(=O)[C@H](N)CSSC[C@H](C(=O)O)NC(=O)[C@@H](CC(N)=O)NC(=O)[C@@H](CS)NC(=O)[C@@H](Cc2ccccc2)NC(=O)[C@@H](CCCNC(=N)N)NC(=O)[C@@H](CO)NC(=O)[C@@H](CCCCN)NC1=O [PSP 2, H-ctksrfcnc-OH] (H-[dC][dT][dK][dS][dR][dF][dC][dN][dC]-OH; disulfide 1-9)	% inhibition H3N8	%	65
CC[C@@H](C)[C@H]1NC(=O)[C@@H](Cc2ccccc2)NC(=O)[C@@H](CCCNC(=N)N)NC(=O)[C@@H](CO)NC(=O)[C@@H](CCCCN)NC(=O)[C@@H]([C@H](C)O)NC(=O)[C@H](N)CSSC[C@H](C(=O)O)NC(=O)[C@@H](CC(N)=O)NC1=O [PSP 8, H-ctksrfinc-OH] (H-[dC][dT][dK][dS][dR][dF][dI][dN][dC]-OH; disulfide 1-9)	% inhibition H3N8	%	83.5
